# System: U-87 MG
# Method: Cytotoxicity against human U87 cells after 72 hrs by XTT assay
# Assay type: functional, cell-based, U-87MG ATCC
Measurement name: IC50 (µM)
Enter your answer as a number in µM; do not include the unit.

Measured IC50, C#CCOc1ccc(-c2noc(-c3nnn(-c4cccc(/C(C)=N/O)c4)c3N)n2)cc1 : 3.3
